Attribution: the supplement of paper PMC10567573

B1: TMEM106C (parent)
chain: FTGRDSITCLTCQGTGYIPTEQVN

variants of: B1; assay: protein stability index of a GFP-peptide fusion (GPS, HEK-293T) (PSI 1-6); higher = more stable; conditions: c terminus: a fixed tail appended;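 also: lentivirally expressed fusions sorted by FACS into six bins by GFP to DsRed ratio, PSI derived from sequencing read proportions per bin multiplied by bin number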
protein stability index vs 2: at or above is T, below is F.

// below: answered variants
alteration=T11F label_class=T
alteration=C12P label_class=F
alteration=G3M label_class=T
alteration=D5W label_class=T
alteration=C9D label_class=T

Q: Entry P19T : is its protein stability index no less than 2?
Result: T

Q: Entry T8D : is its protein stability index no less than 2?
Result: T

Q: Entry T20F : is its protein stability index no less than 2?
Result: F

Q: Entry E21G : is its protein stability index no less than 2?
Result: F

Q: Entry Q22L : is its protein stability index no less than 2?
Result: T

Q: Entry D5R : is its protein stability index no less than 2?
Result: F

Q: Entry T20A : is its protein stability index no less than 2?
Result: T

Q: Entry G14C : is its protein stability index no less than 2?
Result: F

Q: Entry R4S : is its protein stability index no less than 2?
Result: T

Q: Entry I7R : is its protein stability index no less than 2?
Result: T

Q: Entry Q22G : is its protein stability index no less than 2?
Result: T

Q: Entry L10H : is its protein stability index no less than 2?
Result: T

Q: Entry G14K : is its protein stability index no less than 2?
Result: F

Q: Entry T8I : is its protein stability index no less than 2?
Result: F
